Assay: protein stability index of a GFP-peptide fusion (yeast GPS) (PSI 1-4); higher = more stable; sorted into four equal gates, so the index is relative within each strain
Settings: ubr1∆
Param threshold (3) applies to protein stability index; output true when value >= threshold, false when value < threshold.

For orientation, consider the following solved cases.
Please indicate if the recorded protein stability index for SPYGNLQNDLIHKIQND [RPN5] meets or exceeds 3.
false

Also YYVPYSKLMPVLKSSVY [RPC82] , if possible.
false

Also LKSTKHSISEAENMLEE [SMC4] , if possible.
true

Also MVDVEEKSQEVEYVDPT [RPN7] , if possible.
true

Also NTQPSASGFGFGGSQPN [YGR119C/NUP57] , if possible.
false

Further cases:
Please indicate if the recorded protein stability index for VLTHESLHRQQQQQQQQ [DLS1] meets or exceeds 3.
false

Also KSGTSHDAIFSIYKYIH [SNF12] , if possible.
false

Also ADNKEDVKKPFSFGTSQ [YLR335W/NUP2] , if possible.
true

Also GSAINHHRIFDSSAHFK [YMR129W/POM152] , if possible.
false

Also VKYASPNLNMKYRKRQL [FAS2] , if possible.
false

Also QTWSYLSLYSTDLENSS [ECM29] , if possible.
false

Also KAKIIPGNGKHASENIS [SIR4] , if possible.
false

---

Assay: protein stability index of a GFP-peptide fusion (yeast GPS) (PSI 1-4); higher = more stable; sorted into four equal gates, so the index is relative within each strain
Details: san1∆
I'd appreciate it if you could supply protein stability index values for the items below.
Answers are plain numbers.

// lookup protein stability index for LTNQQPKNLSTPSTSSN [CSE2]
2.67

Also ATVVSTNHSAAASTPTT [PGD1] , if possible.
2.98

Also EGNAQLVAIFGGQGNTD [FAS1] , if possible.
2.13

Also RIAVLHQKTKTLASLSI [YGL172W/NUP49] , if possible.
2.26

Also DIPELSFFHQSNMQKSL [RPN3] , if possible.
2.8

Provide protein stability index for all items below, preserving their order.
1. LPGKVNTKEEFAAAPND [SNF5]
2. SLDEILLPANLLSLNSV [SRP68]
3. SENHTESDAPPKSTAPI [YOR098C/NUP1]
4. PKDFSPNFTGIDKLMLS [SSN2]
5. LVYQYKGAGLSMGTMIC [PRE2]
6. QKYTKEMIDSHIKEASE [SNF2]
7. DPDLGLDLMFDEVYVQN [YJL039C/NUP192]

[2.84, 3.14, 2.51, 1.85, 2.18, 2.94, 2.93]

Provide protein stability index for all items below, preserving their order.
1. FIRYDVKTPKKTKYILQ [CSN12]
2. TAETNNKVHETSSKSSS [YDL088C/ASM4]

1: 1.78; 2: 2.84

---

Assay: protein stability index of a GFP-peptide fusion (yeast GPS) (PSI 1-4); higher = more stable; sorted into four equal gates, so the index is relative within each strain
Conditions: doa10∆
PROPERTY MEASURED: protein stability index
Give bare numbers.

Below: 5 sequences and their reported protein stability index.
// lookup protein stability index for IIFQQLLFWTDPRNLVN [YCG1]
2.04

Also RADTMDFKTDVDEPMTS [YJL039C/NUP192] , if possible.
3.26

Also RKRAHSLVSTQSSSSTR [REC8] , if possible.
2.86

Also IAEGKSKQDASPKPYAV [RPL8B] , if possible.
3.02

Also NDLGKFIPNKQLNCVID [RPN7] , if possible.
2.49

Provide protein stability index for all items below, preserving their order.
1. VLSDDAKKLSSFDFGNE [ARP9]
2. IYQHLASHNEKDQDSQI [SRP72]

1. 2.93
2. 2.58

Provide protein stability index for all items below, preserving their order.
1. VKKVVKEQTEAAKKSEK [RPL34A]
2. LVYQYKGAGLSMGTMIC [PRE2]
3. IPNQEVLQYSDWESDLH [YDL116W/NUP84]
4. PKALRFDRLVAGQIPTG [FAS2]
5. EERERKDQYVPEVSALD [RPS17A]

3.37
2.06
2.1
2.15
2.91

Provide protein stability index for all items below, preserving their order.
1. KIRITLTSTKVKQLENV [RPS20]
2. KWAGIKTRKFVFNPPKP [CYT1]
3. IEKCLKASELKLALGIA [RPN2]
4. LCQKSPVMADLNGGLQF [FAS2]
5. EQWITIESQMRDLILTE [PRP8]
6. IKIFELKLPADATTWRY [IRR1]

1.77
3.04
2.75
2.79
2.78
2.03

Provide protein stability index for all items below, preserving their order.
1. LVDLKKELAELKVQKLS [RPL35A]
2. RMHLAPASKQGYLITPP [SSN2]
3. VPLIKVADAKQLGEWAG [RPS12]
4. PFNQGSKQDVEALIEFI [FAS2]
5. SSIENNINNNINSTKNG [MED2]

[1.2, 1.36, 3.17, 3.08, 2.85]

Provide protein stability index for all items below, preserving their order.
1. ATDLAGPANNPNEFMQF [PRP8]
2. RYWVQKERSDGKRHIFD [CDC53]
3. LTTFANQVMMDRKIQGW [ARP7]
4. IKEIINASKVISTPIIN [RPO31]
5. YITARIMAKRPFDKKSN [FAS1]
6. TLKLRARQRGKLKKSEE [SRP68]
7. LDGVSYLHQNWVLHRDL [SSN3]
8. LGLLLPIAASTDLPIET [RPN1]

1: 3.21; 2: 2.49; 3: 2.69; 4: 3.08; 5: 2.74; 6: 3.44; 7: 2.34; 8: 1.67

Provide protein stability index for all items below, preserving their order.
1. SARSSVHESLVTQSNIL [SRB8]
2. GIAIGLNKGKKVTSMTP [RPL36A]
3. IYKPLLFEIVSNADTNQ [SRB8]

[2.77, 3.08, 1.71]

Provide protein stability index for all items below, preserving their order.
1. AGLDEDGKGAVYSFDPV [PRE7]
2. MINRLLLCALDRKDQDD [RPB2]

1. 2.58
2. 1.86

Provide protein stability index for all items below, preserving their order.
1. IVIDVDYNKKQDRIQDV [MED1]
2. MEDVKIQKEEEPENNTV [SWI3]
3. IDIPLDEQAFYNKDKAE [RPC37]
4. DLSISALLGDKIYNFGE [RPN9]
5. ADNSGARNLYIIAVKGS [RPL23A]
6. HTVTNSPNPTLQPVIPG [SNF5]
7. DVETVKREIQEALSEKP [RPC53]

1. 3.16
2. 3.31
3. 3.27
4. 3.08
5. 1.55
6. 2.55
7. 3.27
